Test system: HCT-15 colon
Test Protocol: NCI tumour cell line growth inhibition, 48 h

[
  {
    "Record Smiles": "C=CCn1c(-c2ccccc2)cs/c1=N\\C(P(=O)(O)O)P(=O)(O)O",
    "Readout Qualifier": ">",
    "TGI (µM)": 100
  },
  {
    "Record Smiles": "CCC1=C[C@@H]2CN(C1)Cc1c([nH]c3ccccc13)[C@@](C(=O)OC)(c1cc3c(cc1OC)N(C=O)[C@H]1[C@@](O)(C(=O)OC)[C@H](OC(C)=O)[C@]4(CC)[C@@H]5C[C@@H]5CN5CC[C@]31[C@@H]54)C2",
    "Readout Qualifier": ">",
    "TGI (µM)": 6.25
  },
  {
    "Record Smiles": "OCc1c2c(cc3c1CC1(C3)Cc3cc4c(c(CO)c3C1)CCC4)CCC2",
    "Readout Qualifier": "=",
    "TGI (µM)": 34.6
  },
  {
    "Record Smiles": "N=C1c2nc3n(c2C(=O)c2nc4n(c21)CCCC4)CCCC3",
    "Readout Qualifier": "=",
    "TGI (µM)": 6.62
  },
  {
    "Record Smiles": "COc1cc(CCNC2=CC(=O)c3cccnc3C2=O)ccc1O",
    "Readout Qualifier": "=",
    "TGI (µM)": 2.58
  }
]

The reported measurements were obtained from PubChem BioAssay (NCI).
